Study target: HCV genotype 1b NS5B protein containing the S282T mutation (Hepatitis C virus genotype 1b, UniProt Q9WMX2, S2701T)
Construct: approximately 65 kDa HCV genotype 1b NS5B protein; made in house
Protocol description: HCV polymerase enzyme assay, S282T 1b
Type: biochemical
Reported conditions: purified recombinant polymerase; compounds as nucleoside triphosphates; read-out: S282T 1b IC50
pIC50: −log10 of the molar value.
Parameter measured: pIC50

Nc1nc2c(ncn2[C@@H]2O[C@@]3(COP(=O)(O)OP(=O)(O)OP(=O)(O)O)CO[C@@H]2[C@@H]3O)c(=O)[nH]1 [Compound 103] : 6.00 to 6.60
Nc1ccn([C@@H]2O[C@@]3(COP(=O)(O)OP(=O)(O)OP(=O)(O)O)CO[C@@H]2[C@@H]3O)c(=O)n1 [Compound 107] : 5.00 to 6.00
Nc1ncnc2c1ncn2[C@@H]1O[C@@]2(COP(=O)(O)OP(=O)(O)OP(=O)(O)O)CO[C@@H]1[C@@H]2O [Compound 101] : < 5.00

Attention now shifts to the item below.
Input: Look up and state reported pIC50 for O=c1ccn([C@@H]2O[C@@]3(COP(=O)(O)OP(=O)(O)OP(=O)(O)O)CO[C@@H]2[C@@H]3O)c(=O)[nH]1 [Compound 108]
Output: < 5.00

---

Study target: HCV genotype 1b NS5B protein containing the S282T mutation (Hepatitis C virus genotype 1b, UniProt Q9WMX2, S2701T)
Construct: approximately 65 kDa HCV genotype 1b NS5B protein; made in house
Protocol description: HCV polymerase enzyme assay, S282T 1b
Assay type: biochemical
Parameter measured: IC50

Input: Look up and state reported IC50 for CCOc1nc(N)nc2c1ncn2[C@@H]1O[C@@]2(COP(=O)(N[C@@H](C)C(=O)OC(C)C)Oc3ccccc3)CO[C@@H]1[C@@H]2O (stereo partly shown) [Compound 25]
Output: 250 to 1000 nM

---

Protocol description: in vitro
Reported conditions: human
Parameter measured: CC50 at 72 h

Input: Look up and state reported CC50 at 72 h for Nc1nc2c(ncn2[C@@H]2O[C@@]3(CO)CN[C@@H]2[C@@H]3O)c(=O)[nH]1
Output: > 50 µM

---

Study target: HCV polymerase wild-type genotype 4a protein (Hepatitis C virus genotype 4a, UniProt O39929)
Construct: used to generate recombinant HCV polymerases
Sequence (O39929 2418-2987): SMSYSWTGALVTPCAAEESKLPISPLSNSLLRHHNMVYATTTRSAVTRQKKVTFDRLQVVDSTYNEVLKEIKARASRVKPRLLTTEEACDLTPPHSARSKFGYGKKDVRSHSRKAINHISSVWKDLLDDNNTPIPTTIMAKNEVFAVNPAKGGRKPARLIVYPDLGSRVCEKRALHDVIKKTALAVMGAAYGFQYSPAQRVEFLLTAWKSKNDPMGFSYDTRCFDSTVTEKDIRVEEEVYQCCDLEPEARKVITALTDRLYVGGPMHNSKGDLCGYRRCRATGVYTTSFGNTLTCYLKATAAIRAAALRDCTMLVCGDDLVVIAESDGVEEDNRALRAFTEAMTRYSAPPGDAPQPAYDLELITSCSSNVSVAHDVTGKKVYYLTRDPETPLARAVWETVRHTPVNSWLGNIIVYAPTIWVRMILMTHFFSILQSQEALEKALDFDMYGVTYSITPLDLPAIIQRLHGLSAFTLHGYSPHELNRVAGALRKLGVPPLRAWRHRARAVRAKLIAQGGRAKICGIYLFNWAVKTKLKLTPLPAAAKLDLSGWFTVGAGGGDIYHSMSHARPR
Protocol description: HCV polymerase enzyme assay, wild-type 4a
Reported conditions: purified recombinant polymerase; compounds as nucleoside triphosphates
Parameter measured: IC50

Input: Look up and state reported IC50 for Nc1nc2c(ncn2[C@@H]2O[C@@]3(COP(=O)(O)OP(=O)(O)OP(=O)(O)O)CO[C@@H]2[C@@H]3O)c(=O)[nH]1
Output: 0.25 to 1 µM

---

pIC50: −log10 of the molar value.
Recorded below: pIC50, system HCV wild-type genotype 1b NS5B protein (Hepatitis C virus genotype 1b).

N[C@H]1[C@H]2OC[C@]1(COP(=O)(O)OP(=O)(O)OP(=O)(O)O)O[C@H]2n1ccc(=O)[nH]c1=O [Compound 571] : < 5.00
Nc1nc2c(ncn2[C@@H]2O[C@@]3(COP(=O)(O)OP(=O)(O)OP(=O)(O)O)CN[C@@H]2[C@@H]3O)c(=O)[nH]1 [Compound 570] : < 5.00
CC(OP(=O)(O)OP(=O)(O)OP(=O)(O)O)C12COC(C(n3cnc4c(=O)[nH]c(N)nc43)O1)C2O (single isomer, unassigned) [Compound 102 Diastereomer 2] : < 5.00
O=c1ccn([C@@H]2O[C@@]3(COP(=O)(O)OP(=O)(O)OP(=O)(O)O)CO[C@@H]2[C@@H]3O)c(=O)[nH]1 [Compound 108] : 5.00 to 6.00
C[C@H](OP(=O)(O)OP(=O)(O)OP(=O)(O)O)[C@@]12CO[C@@H]([C@H](n3ccc(=O)[nH]c3=O)O1)[C@@H]2O [Compound 104a] : < 5.00

Input: Tell me its pIC50 on HCV wild-type genotype 1b NS5B protein (Hepatitis C virus genotype 1b): C[C@H]1O[C@H]2[C@H](n3cnc4c(=O)[nH]c(N)nc43)O[C@]1(COP(=O)(O)OP(=O)(O)OP(=O)(O)O)[C@H]2O [Compound 426]
Output: < 5.00

Input: Tell me its pIC50 on HCV wild-type genotype 1b NS5B protein (Hepatitis C virus genotype 1b): Nc1ccn([C@@H]2O[C@@]3(COP(=O)(O)OP(=O)(O)OP(=O)(O)O)CO[C@@H]2[C@@H]3O)c(=O)n1 [Compound 107]
Output: 5.00 to 6.00

Input: Tell me its pIC50 on HCV wild-type genotype 1b NS5B protein (Hepatitis C virus genotype 1b): Nc1ncnc2c1ncn2[C@@H]1O[C@@]2(COP(=O)(O)OP(=O)(O)OP(=O)(O)O)CO[C@@H]1[C@@H]2O [Compound 101]
Output: < 5.00

Input: Tell me its pIC50 on HCV wild-type genotype 1b NS5B protein (Hepatitis C virus genotype 1b): C[C@H]1O[C@H]2[C@H](n3ccc(=O)[nH]c3=O)O[C@]1(COP(=O)(O)OP(=O)(O)OP(=O)(O)O)[C@H]2O [Compound 427]
Output: < 5.00

Input: Tell me its pIC50 on HCV wild-type genotype 1b NS5B protein (Hepatitis C virus genotype 1b): [N-]=[N+]=N[C@H]1[C@H]2OC[C@]1(COP(=O)(O)OP(=O)(O)OP(=O)(O)O)O[C@H]2n1ccc(=O)[nH]c1=O [Compound 401]
Output: < 5.00

Input: Tell me its pIC50 on HCV wild-type genotype 1b NS5B protein (Hepatitis C virus genotype 1b): Nc1nc2c(ncn2[C@@H]2O[C@@]3(COP(=O)(O)OP(=O)(O)OP(=O)(O)O)CO[C@@H]2[C@@H]3O)c(=O)[nH]1 [Compound 103]
Output: 6.00 to 6.60

Input: Tell me its pIC50 on HCV wild-type genotype 1b NS5B protein (Hepatitis C virus genotype 1b): CCOc1nc(N)nc2c1ncn2[C@@H]1O[C@@]2(COP(=O)(N[C@@H](C)C(=O)OC(C)C)Oc3ccccc3)CO[C@@H]1[C@@H]2O (some centres unmarked) [Compound 25]
Output: 6.00 to 6.60

Input: Tell me its pIC50 on HCV wild-type genotype 1b NS5B protein (Hepatitis C virus genotype 1b): C[C@@H](OP(=O)(O)OP(=O)(O)OP(=O)(O)O)[C@@]12CO[C@@H]([C@H](n3ccc(=O)[nH]c3=O)O1)[C@@H]2O [Compound 104b]
Output: < 5.00

Input: Tell me its pIC50 on HCV wild-type genotype 1b NS5B protein (Hepatitis C virus genotype 1b): C[C@]12OC[C@](COP(=O)(O)OP(=O)(O)OP(=O)(O)O)(O[C@H]1n1cnc3c(=O)[nH]c(N)nc31)[C@H]2O [Compound 106]
Output: > 6.60

---

Study target: HCV polymerase wild-type genotype 1a protein (Hepatitis C virus genotype 1a)
Construct: used to generate recombinant HCV polymerases
Sequence (P27958 2421-2990): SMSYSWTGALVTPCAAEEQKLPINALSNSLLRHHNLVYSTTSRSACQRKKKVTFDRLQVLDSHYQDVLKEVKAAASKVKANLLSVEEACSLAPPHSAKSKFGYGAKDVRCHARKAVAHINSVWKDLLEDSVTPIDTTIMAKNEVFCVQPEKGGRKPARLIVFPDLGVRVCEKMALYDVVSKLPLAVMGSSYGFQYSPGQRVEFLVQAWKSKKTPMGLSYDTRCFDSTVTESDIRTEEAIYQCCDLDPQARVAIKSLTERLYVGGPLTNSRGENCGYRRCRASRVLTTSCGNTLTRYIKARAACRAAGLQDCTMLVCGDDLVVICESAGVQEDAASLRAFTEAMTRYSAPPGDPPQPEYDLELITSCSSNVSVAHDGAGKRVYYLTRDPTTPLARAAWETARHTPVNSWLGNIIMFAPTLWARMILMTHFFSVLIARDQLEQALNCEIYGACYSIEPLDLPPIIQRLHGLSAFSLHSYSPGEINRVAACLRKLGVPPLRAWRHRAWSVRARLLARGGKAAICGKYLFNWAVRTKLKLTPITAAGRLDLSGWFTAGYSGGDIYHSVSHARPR
Protocol description: HCV polymerase enzyme assay, wild-type 1a
Parameter measured: IC50

Input: Look up and state reported IC50 for Nc1nc2c(ncn2[C@@H]2O[C@@]3(COP(=O)(O)OP(=O)(O)OP(=O)(O)O)CO[C@@H]2[C@@H]3O)c(=O)[nH]1
Output: 250 to 1000 nM

---

Study target: HCV genotype 1b NS5B protein containing the S282T mutation (Hepatitis C virus genotype 1b, UniProt Q9WMX2, S2701T)
Construct: approximately 65 kDa HCV genotype 1b NS5B protein; made in house
Protocol description: HCV polymerase enzyme assay, S282T 1b
Format: biochemical
Reported conditions: purified recombinant polymerase; compounds as nucleoside triphosphates; read-out: S282T 1b IC50
Parameter measured: IC50

Below, each entry is followed by its recorded IC50 result.
C[C@]12OC[C@](COP(=O)(O)OP(=O)(O)OP(=O)(O)O)(O[C@H]1n1cnc3c(=O)[nH]c(N)nc31)[C@H]2O [Compound 106] : 0.25 to 1 µM
C[C@H](OP(=O)(O)OP(=O)(O)OP(=O)(O)O)[C@@]12CO[C@@H]([C@H](n3ccc(=O)[nH]c3=O)O1)[C@@H]2O [Compound 104a] : > 10 µM
CC(OP(=O)(O)OP(=O)(O)OP(=O)(O)O)C12COC(C(n3cnc4c(=O)[nH]c(N)nc43)O1)C2O (single isomer, unassigned) [Compound 102 Diastereomer 2] : > 10 µM

Input: Look up and state reported IC50 for CC(OP(=O)(O)OP(=O)(O)OP(=O)(O)O)C12COC(C(n3cnc4c(=O)[nH]c(N)nc43)O1)C2O (single isomer, unassigned) [Compound 102 Diastereomer 1]
Output: > 10 µM

Input: Look up and state reported IC50 for C[C@@H](OP(=O)(O)OP(=O)(O)OP(=O)(O)O)[C@@]12CO[C@@H]([C@H](n3ccc(=O)[nH]c3=O)O1)[C@@H]2O [Compound 104b]
Output: > 10 µM

Sourced from patent US10723754B2
